Recorded measurements of Ki, one per entry
biological target: Apoptosis regulator Bcl-2 (Homo sapiens, UniProt P10415); assay: Inhibition of 5-FAM-tagged Bid-BH3 peptide binding to Bcl2 (unknown origin) by fluorescence polarization assay; details: read-out: Ki
Sequence (P10415 whole entry): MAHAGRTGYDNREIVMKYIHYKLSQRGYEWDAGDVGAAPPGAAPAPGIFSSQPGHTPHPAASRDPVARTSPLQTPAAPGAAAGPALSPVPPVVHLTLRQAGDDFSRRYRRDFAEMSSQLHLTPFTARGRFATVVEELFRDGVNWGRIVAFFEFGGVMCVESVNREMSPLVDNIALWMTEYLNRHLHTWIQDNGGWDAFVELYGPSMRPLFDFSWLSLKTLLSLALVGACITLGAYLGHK
measureName: Ki

[
  {
    "cpdSmiles": "COc1ccc2c(c1)c(CC(=O)N[C@@H](Cc1ccc(OCc3ccccc3)cc1)C(=O)NS(=O)(=O)c1ccc(Br)cc1)c(C)n2C(=O)c1ccc(Cl)cc1",
    "target": "Apoptosis regulator Bcl-2 (Homo sapiens, UniProt P10415)",
    "assayResult": "530 nM"
  },
  {
    "cpdSmiles": "COc1ccc2c(c1)c(CC(=O)N[C@@H](Cc1ccc(Br)cc1)C(=O)NS(=O)(=O)c1ccc(Cl)c([N+](=O)[O-])c1)c(C)n2C(=O)c1ccc(Cl)cc1",
    "target": "Apoptosis regulator Bcl-2 (Homo sapiens, UniProt P10415)",
    "assayResult": "590 nM"
  },
  {
    "cpdSmiles": "COc1ccc2c(c1)c(CC(=O)N[C@@H](Cc1ccc(OCc3ccc([N+](=O)[O-])cc3)cc1)C(=O)NS(=O)(=O)c1ccc(Br)cc1)c(C)n2C(=O)c1ccc(Cl)cc1",
    "target": "Apoptosis regulator Bcl-2 (Homo sapiens, UniProt P10415)",
    "assayResult": "630 nM"
  }
]

Data provenance is ChEMBL document CHEMBL4340551.
